- Test Description: Inhibition of tubulin polymerization at 5 uM after 60 mins by spectrophotometry
Measure Name: inhibition (%)

1. COc1cc(OC)cc(C(=CC#N)c2ccc(OC)c(N)c2)c1 76
2. CCOc1cc(C(=CC#N)c2ccc(OC)c(N)c2)ccc1OC 65
3. COc1ccc(/C=C\c2cc(OC)c(OC)c(OC)c2)cc1O 88
4. COc1cc(OC)cc(C(=CC#N)c2ccc(OC)c(OC)c2)c1 65
5. CCOc1cc(C(=CC#N)c2ccc(OC)c(NC(=O)CN)c2)ccc1OC.Cl 59
6. COc1cccc(C(=CC#N)c2cc(OC)cc(OC)c2)c1 67
